target: Peroxisome proliferator-activated receptor delta (Homo sapiens, UniProt Q03181); experiment: Agonist activity at Gal4-fussed PPARdelta expressed in human HEK293 cells by reporter gene assay
Sequence (Q03181 whole entry, the tested form may be a part): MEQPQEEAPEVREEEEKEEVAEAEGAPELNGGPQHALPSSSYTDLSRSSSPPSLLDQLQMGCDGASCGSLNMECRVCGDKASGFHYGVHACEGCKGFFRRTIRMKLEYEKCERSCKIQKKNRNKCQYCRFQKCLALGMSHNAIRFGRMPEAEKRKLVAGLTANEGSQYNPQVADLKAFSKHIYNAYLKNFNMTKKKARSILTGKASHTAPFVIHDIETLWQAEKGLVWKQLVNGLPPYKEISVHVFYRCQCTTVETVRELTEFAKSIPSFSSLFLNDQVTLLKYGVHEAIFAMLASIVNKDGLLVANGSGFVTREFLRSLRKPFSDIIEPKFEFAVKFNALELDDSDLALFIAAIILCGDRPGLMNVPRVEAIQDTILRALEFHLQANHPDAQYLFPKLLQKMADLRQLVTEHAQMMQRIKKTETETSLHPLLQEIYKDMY
pEC50: −log10 of the molar value.
REPORTED_PROPERTY: pEC50

Task item: Please provide the recorded pEC50 for CCC(Cc1ccc(OC)c(CNC(=O)c2cccc(Oc3ccccc3)c2)c1)C(=O)O (racemic) , tested on Peroxisome proliferator-activated receptor delta (Homo sapiens, UniProt Q03181).
Reply: 5.32

[P] CCC(Cc1ccc(OC)c(CNC(=O)c2ccc(C)cc2)c1)C(=O)O (racemic)
[Q] CCC(Cc1ccc(OC)c(CNC(=O)c2ccc(OC(F)(F)F)cc2)c1)C(=O)O (racemic)
Task item: # compare pEC50 for P vs Q ; return the one with the smaller value Identify your selection by its label.
Reply: P

[1] CC[C@@H](Cc1ccc(OC)c(CNC(=O)c2ccc(Oc3ccc(Cl)cc3)cc2)c1)C(=O)O
[2] CC[C@@H](Cc1ccc(OC)c(CNC(=O)c2ccc(Oc3ccc(F)cc3)cc2)c1)C(=O)O
[3] CCC(Cc1ccc(OC)c(CNC(=O)c2ccc(OCc3ccccc3)cc2)c1)C(=O)O (racemic)
[4] CCC(Cc1ccc(OC)c(CNC(=O)c2cccc(-c3ccccc3)c2)c1)C(=O)O (racemic)
Task item: List items by pEC50 in falling order. To answer, arrange all of the labels according to the requested order.
Reply: 2, 1, 3, 4
(2: 6.52, 1: 6.24, 3: 5.85, 4: 5.39)

====

target: Peroxisome proliferator-activated receptor delta (Homo sapiens, UniProt Q03181); assay: Agonist activity at Gal4-fussed PPARdelta expressed in human HEK293 cells by reporter gene assay
pEC50: −log10 of the molar value.
REPORTED_PROPERTY: pEC50

[P] CCC(Cc1ccc(OC)c(CNC(=O)c2ccc(Oc3ccccc3)cc2)c1)C(=O)O (racemic)
[Q] CC[C@@H](Cc1ccc(OC)c(CNC(=O)c2ccc(Oc3ccc(Br)cc3)cc2)c1)C(=O)O
[R] CCC(Cc1ccc(OC)c(CNC(=O)c2ccc(OCCc3ccccc3)cc2)c1)C(=O)O (racemic)
Task item: Sort the listed entries by pEC50, smallest first. Could you list the labels in the order requested?
Reply: R, Q, P
(R: 5.85, Q: 6.10, P: 6.92)

====

Target: Peroxisome proliferator-activated receptor gamma (Homo sapiens, UniProt P37231)
Sequence (P37231 whole entry): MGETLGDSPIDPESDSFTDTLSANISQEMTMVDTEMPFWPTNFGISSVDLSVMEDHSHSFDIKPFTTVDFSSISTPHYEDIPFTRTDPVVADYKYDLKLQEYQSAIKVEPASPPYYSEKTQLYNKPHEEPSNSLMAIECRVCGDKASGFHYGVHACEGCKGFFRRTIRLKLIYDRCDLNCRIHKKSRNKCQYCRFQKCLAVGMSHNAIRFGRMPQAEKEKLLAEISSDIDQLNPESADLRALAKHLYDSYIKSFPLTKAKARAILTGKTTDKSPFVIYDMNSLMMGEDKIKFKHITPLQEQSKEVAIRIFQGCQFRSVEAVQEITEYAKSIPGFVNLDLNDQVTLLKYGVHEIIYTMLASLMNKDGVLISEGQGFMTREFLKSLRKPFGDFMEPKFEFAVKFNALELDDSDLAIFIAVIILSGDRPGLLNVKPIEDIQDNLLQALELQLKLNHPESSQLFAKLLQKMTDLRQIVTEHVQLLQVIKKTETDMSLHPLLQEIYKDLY
Test: Agonist activity at Gal4-fussed PPARgamma expressed in human HEK293 cells by reporter gene assay
pEC50: −log10 of the molar value.
REPORTED_PROPERTY: pEC50

Task item: Record request: pEC50 value, item CCC(Cc1ccc(OC)c(CNC(=O)c2ccc(-c3ccccc3)cc2)c1)C(=O)O (racemic)
Reply: 6.47

[a] CCC(Cc1ccc(OC)c(CNC(=O)c2ccc(C)cc2)c1)C(=O)O (racemic)
[b] CCC(Cc1ccc(OC)c(CNC(=O)c2ccc(OCc3ccccc3)cc2)c1)C(=O)O (racemic)
[c] CCC(Cc1ccc(OC)c(CNC(=O)c2ccc(OC(F)(F)F)cc2)c1)C(=O)O (racemic)
Task item: Ascending by pEC50, please: list the molecules accordingly. Form entry: labels listed in requested order.
Reply: a, c, b
